Listed here: items and their measured CC50 at 3 days.
assay: in vitro; conditions: human
quantity: CC50 at 3 days

[
  {
    "compound": "COc1ccc(OC)c(S(=O)(=O)N(Cc2ccc(F)cc2)Cc2ccccn2)c1",
    "result": "> 64 µM"
  },
  {
    "compound": "CCN(Cc1ccccn1)S(=O)(=O)c1cc(OC)ccc1OC",
    "result": "> 64 µM"
  },
  {
    "compound": "COc1ccc(CN(Cc2ccc(F)cc2)S(=O)(=O)c2cc(OC)ccc2OC)cc1",
    "result": "5.42 µM"
  },
  {
    "compound": "COc1ccc(OC)c(S(=O)(=O)N(Cc2ccc(F)cc2)c2ccc(F)cc2)c1",
    "result": "> 64 µM"
  },
  {
    "compound": "COc1ccc(CN(Cc2ccc(F)cc2)S(=O)(=O)c2cc(F)ccc2F)cc1",
    "result": "> 64 µM"
  },
  {
    "compound": "COc1ccc(C(=O)N2CCOCC2)cc1S(=O)(=O)N(Cc1ccc(F)cc1)Cc1ccccc1Cl",
    "result": "36.8 µM"
  },
  {
    "compound": "CN(C)CCN(Cc1ccccc1)S(=O)(=O)c1ccccc1OC(F)(F)F",
    "result": "53.4 µM"
  },
  {
    "compound": "O=C(CN(Cc1ccccc1)S(=O)(=O)c1cc(F)ccc1F)c1ccc(F)cc1",
    "result": "> 64 µM"
  },
  {
    "compound": "COCCN(Cc1ccccc1)S(=O)(=O)c1cc(C(=O)NC2COC2)ccc1OC",
    "result": "> 64 µM"
  },
  {
    "compound": "CCN(Cc1ccccc1)S(=O)(=O)c1cc(F)ccc1N1CCCC1",
    "result": "> 64 µM"
  },
  {
    "compound": "CC[C@]1(O)C[C@@H]2CN(CCc3c([nH]c4ccccc34)[C@@](C(=O)OC)(c3cc4c(cc3OC)N(C)[C@H]3[C@@](O)(C(=O)OC)[C@H](OC(C)=O)[C@]5(CC)C=CCN6CC[C@]43[C@@H]65)C2)C1 [vinblastine, reference compound]",
    "result": "< 0.01 µM"
  },
  {
    "compound": "CCN(Cc1ccccc1)S(=O)(=O)c1ccc(OC)cc1",
    "result": "> 64 µM"
  },
  {
    "compound": "CCN(Cc1ccccc1)S(=O)(=O)c1ccccc1OC(F)(F)F",
    "result": "> 64 µM"
  },
  {
    "compound": "O=S(=O)(NCc1ccccc1)c1cc2c(cc1Cl)NCN(Cc1ccccc1)S2(=O)=O",
    "result": "> 64 µM"
  },
  {
    "compound": "CN(C)CCN(Cc1ccccc1)S(=O)(=O)c1ccccc1S(C)(=O)=O",
    "result": "> 64 µM"
  },
  {
    "compound": "O=S(=O)(c1cc(F)ccc1F)N(Cc1ccc(F)cc1)Cc1ccc(F)cc1",
    "result": "> 64 µM"
  }
]

----------
experiment: in vitro; settings: mouse, microsomes, pH 7.4, Microsome Clint Mouse, intrinsic in vitro clearance, liver microsomes
quantity: microsomal CLint at 0.5 μM

[
  {
    "substance smiles": "O=S(=O)(c1ccccc1OC(F)(F)F)N(Cc1ccccc1)Cc1ccccc1",
    "result": "689 µL/min/mg"
  },
  {
    "substance smiles": "COc1ccc(OC)c(S(=O)(=O)N(Cc2ccccc2)Cc2ccccc2)c1",
    "result": "1300 µL/min/mg"
  },
  {
    "substance smiles": "COc1ccc(CN2CCOCC2)cc1S(=O)(=O)N(Cc1ccc(F)cc1)Cc1ccc(F)cc1",
    "result": "3200 µL/min/mg"
  }
]

----------
Listed here: items and their measured CC50 at 120 h.
experiment: in vitro; details: human, THP-1 cells differentiated with PMA
quantity: CC50 at 120 h

[
  {
    "compound": "CCCN(Cc1ccc(F)cc1)S(=O)(=O)c1cc([S+](C)[O-])ccc1OC (centres unmarked) [DNDI0003578384]",
    "quantity": "CC50 at 120 h",
    "result": "> 64 µM"
  },
  {
    "compound": "O=S1(=O)c2ccccc2[C@H](O)[C@H](Cc2ccccc2)N1Cc1ccccc1 [DNDI0003578379]",
    "quantity": "CC50 at 120 h",
    "result": "39.4 µM"
  },
  {
    "compound": "COc1ccc([S+](C)[O-])cc1S(=O)(=O)N(Cc1ccccc1)Cc1ccccc1 (centres unmarked) [DNDI0003578382]",
    "quantity": "CC50 at 120 h",
    "result": "> 64 µM"
  },
  {
    "compound": "O=S(=O)(NCc1ccccc1)c1cc2c(cc1Cl)NCN(Cc1ccccc1)S2(=O)=O [DNDI0003392144]",
    "quantity": "CC50 at 120 h",
    "result": "53.2 µM"
  },
  {
    "compound": "CCCCCOc1cc(C)c(Cl)cc1S(=O)(=O)NCc1cccs1 [DNDI0002572712]",
    "quantity": "CC50 at 120 h",
    "result": "> 50 µM"
  },
  {
    "compound": "C[S+]([O-])c1c(Cl)ccc2c1S(=O)(=O)N(Cc1ccccc1)CCO2 (centres unmarked) [DNDI0003578383]",
    "quantity": "CC50 at 120 h",
    "result": "> 64 µM"
  },
  {
    "compound": "CCCCOc1ccc(C(=O)N2CCOCC2)cc1S(=O)(=O)NCc1ccccc1 [DNDI0003407874]",
    "quantity": "CC50 at 120 h",
    "result": "> 64 µM"
  },
  {
    "compound": "COc1ccc(C(=O)N2CCOCC2)cc1S(=O)(=O)N(Cc1ccc(C(F)(F)F)nc1)C(C)c1ccc(F)cc1 (centres unmarked) [DNDI0003407905]",
    "quantity": "CC50 at 120 h",
    "result": "> 64 µM"
  }
]

----------
test: in vitro; conditions: human, microsomes, pH 7.4, HLM CLint, human liver microsomes
quantity: microsomal CLint at 0.5 μM

[
  {
    "substance smiles": "O=S(=O)(NCc1ccccc1)c1cc(F)ccc1F",
    "result": "75 µL/min/mg"
  },
  {
    "substance smiles": "COc1ccc(C(N)=O)cc1S(=O)(=O)N(Cc1ccccc1)Cc1ccccc1",
    "result": "108 µL/min/mg"
  },
  {
    "substance smiles": "CCN(Cc1ccccn1)S(=O)(=O)c1cc(OC)ccc1OC",
    "result": "118 µL/min/mg"
  },
  {
    "substance smiles": "CCN(Cc1ccccc1)S(=O)(=O)c1cc(F)ccc1N1CCCC1",
    "result": "1470 µL/min/mg"
  },
  {
    "substance smiles": "CCN(Cc1ccccc1)S(=O)(=O)c1ccccc1C#N",
    "result": "306 µL/min/mg"
  }
]

----------
Listed here: items and their measured CC50.
assay: in vitro; details: human, HepG2 cells
quantity: CC50

[
  {
    "molecule": "COCCN(Cc1ccccc1)S(=O)(=O)c1c(OC)ccc(Cl)c1S(C)(=O)=O [DNDI0003578381]",
    "result": "> 64 µM"
  },
  {
    "molecule": "O=S1(=O)c2ccccc2[C@H](O)[C@@H](Cc2ccccc2)N1Cc1ccccc1 [DNDI0003578378]",
    "result": "63.9 µM"
  },
  {
    "molecule": "COc1ccc([S+](C)[O-])cc1S(=O)(=O)N(Cc1ccccc1)Cc1ccccc1 (stereo not shown) [DNDI0003578382]",
    "result": "> 64 µM"
  },
  {
    "molecule": "COCCN(Cc1ccccc1)S(=O)(=O)c1c(OC)ccc(Cl)c1[S+](C)[O-] (stereo not shown) [DNDI0003578380]",
    "result": "> 64 µM"
  }
]

----------
experiment: physchem; details: HPLC, Ascentis Express RP Amide column, pH 7.4, elog D, HPLC measured log D, pH 7.4

[
  {
    "substance smiles": "COc1ccc(C(=O)NC2COC2)cc1S(=O)(=O)N(Cc1ccc(F)cc1)Cc1ccc(F)cc1",
    "chromatographic logD": 4
  },
  {
    "substance smiles": "COCCN(Cc1ccc(F)cc1)S(=O)(=O)c1ccccc1OC(F)(F)F",
    "chromatographic logD": 3.8
  },
  {
    "substance smiles": "COCCN(Cc1ccc(F)cc1)S(=O)(=O)c1cc(C#N)ccc1OC",
    "chromatographic logD": 3.4
  },
  {
    "substance smiles": "CS(=O)(=O)c1ccccc1S(=O)(=O)N(Cc1ccccc1)Cc1ccccc1",
    "chromatographic logD": 4
  },
  {
    "substance smiles": "COc1ccc(N2CCOCC2)cc1S(=O)(=O)N(Cc1ccc(F)cc1)Cc1ccc(F)cc1",
    "chromatographic logD": 4.2
  },
  {
    "substance smiles": "COc1ccc(C#N)cc1S(=O)(=O)N(Cc1ccc(F)cc1)C1CCOCC1",
    "chromatographic logD": 3.4
  },
  {
    "substance smiles": "COc1ccc(C(=O)N2CCOCC2)cc1S(=O)(=O)N(Cc1ccccc1)Cc1ccccc1",
    "chromatographic logD": 3.8
  },
  {
    "substance smiles": "COCCOCN1CNc2cc(OC)c(S(=O)(=O)N(Cc3ccccc3)Cc3ccccc3)cc2S1(=O)=O",
    "chromatographic logD": 4
  },
  {
    "substance smiles": "COc1ccc(C(=O)N2CCOCC2)cc1S(=O)(=O)N(Cc1ccccc1)Cc1cnc(C(F)(F)F)nc1",
    "chromatographic logD": 3.5
  },
  {
    "substance smiles": "COc1ccc(OC)c(S(=O)(=O)N(Cc2ccc(F)cc2)c2ccc(F)cc2)c1",
    "chromatographic logD": 4.3
  },
  {
    "substance smiles": "COCCN(Cc1ccc(F)cc1)S(=O)(=O)c1cc(C(=O)N2CCOCC2)ccc1OC",
    "chromatographic logD": 2.9
  },
  {
    "substance smiles": "COc1ccc(S(C)(=O)=O)cc1S(=O)(=O)N(Cc1ccc(F)cc1)Cc1ccc(F)cc1",
    "chromatographic logD": 3.9
  },
  {
    "substance smiles": "COc1ccc(C#N)cc1S(=O)(=O)N(Cc1ccc(C(F)(F)F)nc1)Cc1ccc(C(F)(F)F)nc1",
    "chromatographic logD": 3.8
  },
  {
    "substance smiles": "COc1ccc(C(=O)N2CCOCC2)cc1S(=O)(=O)N(Cc1ccccc1)CC(C)(C)C",
    "chromatographic logD": 3.8
  },
  {
    "substance smiles": "COc1ccc(C#N)cc1S(=O)(=O)N(Cc1ccccc1)Cc1ccccc1",
    "chromatographic logD": 4.3
  },
  {
    "substance smiles": "COc1ccc(F)cc1S(=O)(=O)N(Cc1ccccc1)Cc1ccccc1",
    "chromatographic logD": 4.7
  },
  {
    "substance smiles": "COc1ccc(C(=O)O)cc1S(=O)(=O)N(Cc1ccccc1)Cc1ccccc1",
    "chromatographic logD": 2.5
  }
]
